experiment: yeast display, Sf9 membrane polyspecificity reagent, FACS + sequencing; frameworks hold sequencing errors
measured_endpoint: polyreactivity (PSR sort gate)

For orientation, consider the following solved cases.
QVQLVESGGGLVQAGGSLRLSCAASGITLYINAMGWYRQAPGKERELVAAITRIGGRTYYADSVKGRFTISRDNAKNTVYLQMNSLKPEDTAVYYCNARTYNAFNYWGQGTQVTVSS ... high polyreactivity
QVQLVESGGGLVQAGGSLRLSCAASGSIFRRYAMGWYRKAPGKEREMVAGISRTGSRTYYADSVKGRFTISRDNAKNTVYLQMNSLKPEDTAVYYCAALGPGRSGFFRYDYWGQGTQVTVSS ... high polyreactivity
QVQLVDSGGGLVQAGGSLRLSCPASGITLNHYVMGWYRQAPAKETELVAAISSSGGSTYYADSVKGRFTISRDNAMITVYLQMNSLKPEDTAVYYCAKDYNGRYTWRYEYWGQGTQVTVSS ... high polyreactivity
QLQLVESGGGLVQEGGSLRLSCAASGSTFVYNDKGWYRQAPGKDRELVAAITSGVRTYYSDYVKGRFTISRDNAKNTVYLQMNSLKPEDTALYYCGTGWRYAQYYYWGQGTQVTVSS ... high polyreactivity
QVQLVESGGGLVQAGGSLRLSCAASGFTFDYYAMGWYRQAPGKERELVAAISSSGGSTYYADSVKGRFTISRDNAKNTVYLQMNSLKPEDTAVYYCATGHSKKYDYWGQGTQVTVSS ... high polyreactivity
QVQLVESGGGLVQAGGSLRLSCAASGSTFHVNAMGWYRQAPGKEREFVAAISWRTGSTYYADSVKGRFTISRDNAKNTVYLQRHSLKPEDTAVYYCAAKRSYSNYDYWGQGTQVTVSS ... high polyreactivity

Look up polyreactivity (PSR sort gate) for the entries below, preserving their order.
1. QVQLVESGGGLVQAGGSLRLSCAASGRTFGTNAMGWYRQAPGKERELVAAIRRGGSRTYNADSVKGRFTISRDIAKNTVYLQMNSLKPEDTAVYYCAVDYYPYEVSYVRMDYWGQCTQVTVSS
2. QVQLVHSGGGLVQAGGILRLSCAASGYTFGYYTRGWYRQAPGKERELVASIDSGGGTNYADSVKGRFSISRDNAKKTVYLQMNSLKPEDNAVYYCAAESPLYWVEDFESGWRFYYCGQGTQVTVSS
3. QVQLVESGGGLVQAGGSLRLSCAASGFTFVINDMGWYRQAPGKERELVADITSGGDTNYADSVKGRFTISRDNAKNTVYFQMNSLKPEDTAVYYCAADIYPDWIYLLFGYWGQGTQVTVSS

Ans:
1. low polyreactivity
2. low polyreactivity
3. low polyreactivity

Give me polyreactivity (PSR sort gate) for each of these sequences, listed below.
1. QVQLVESGGGLVQAGGSLRLSCAASGIIFGDNAMGWYRQAPGKERELVAAIDSGGSTYYADSVKGRFTISRDNAKTTVYCPMNSLKPEDTAVYYCNAVTAFGYSYGGWDYDQYNYWGQGTQVTVSS
2. QVQLVDSGGGLVQAGGSLRLSCAASGRTFGAYAMGWYRQAPGKERELVATITVSGGSTYYADSVKGRFTISRDNAKNTVYLQMNSLKPEDSAVYYCAAAYDWWQFYSWTIAYDYWGQGTQVTVSS
3. QVQLVESGGGLVQAGGSLRLSCADSGGTFYRYARGWYRQAPGKERELVAAISRRGGSTYYADSVKGRFTISRDNAKNTVYLQMNSLKPDDTAVYYCDKDVSDSRFDYWGQGTQVTVSS
4. QVQLVESGGGLVQAGGSLRLSCAASGSTFVKNAMGWYRQAPGKERELVAAISGRGGSTYYADSVKGRFTISRDNAKNTVYLQMNSLKPEDTAVYYCNKAYSVAYTYNYWGQGTQVTVSS
5. QVQLVESGGGLVQAGGSLRLSCAATGRIVTSNAMGWYRQAPGKERELVAVISRRGGSTYYADSVKGRFTISRDNAKNTVYLQMNRLKPEETAVYYCARRPYSYTRYEYWGQGTQVTVSS

Ans:
low polyreactivity
low polyreactivity
high polyreactivity
high polyreactivity
low polyreactivity
